# Tested on: KB-3-1
# test summary: Cytotoxic Profiling of Annotated Libraries Using Quantitative High-Throughput Screening (AID 1296008); further: nearly all actives have a fitted effect of over 60% in size
# details: Five cell lines viability, CellTiter-Glo ATP luminescence, 48-72 h
# Experimental: Cell-based phenotypic screening is a commonly used approach to discover biological pathways, novel drug targets, chemical probes and high-quality hit-to-lead molecules. […] A pintool (Kalypsys) was used to transfer 23 nL of compound solution to the 1536-well assay plates. […] Plates were left at room temperature for 10 min before imaging the ATP-coupled luminescence using a ViewLux microplate imager (PerkinElmer, Waltham, MA).
Records with an inconclusive call do not appear. Calls of active or inactive are those of the source. The call rests on the fitted dose curve; in most records, active means well fitted inhibition curve with a large enough effect; inconclusive means small, poorly fitted or top-dose-only effect; inactive means flat fitted curve, though single readings scatter.
In this exercise, the only acceptable responses are active, inactive

| compound | cat |
| --- | --- |
| Cn1c(=O)c2c(ncn2CC(O)CO)n(C)c1=O (stereo unspecified) | inactive |
| NC1(c2ccc(-c3nc4ccn5c(=O)[nH]nc5c4cc3-c3ccccc3)cc2)CCC1 | active |
| COC(=O)Nc1nc2ccc(Sc3ccccc3)cc2[nH]1 | active |

Assay outcome for O=C(O)CSCC(=O)NC1CCSC1=O (stereo unspecified) : what was it? inactive

What did this assay record as the result for `COc1ccc(-c2ccc3cc(C(=O)O)ccc3c2)cc1C12CC3CC(CC(C3)C1)C2` ? inactive

Write down the call the test reported for this compound. Item: `Cc1ccnc2c1NC(=O)c1cccnc1N2C1CC1` inactive
